// provenance: the supplement of paper PMC10065799

experimentalSystem: MERTK (UniProt Q12866)
Sequence (Q12866 whole entry, looked up): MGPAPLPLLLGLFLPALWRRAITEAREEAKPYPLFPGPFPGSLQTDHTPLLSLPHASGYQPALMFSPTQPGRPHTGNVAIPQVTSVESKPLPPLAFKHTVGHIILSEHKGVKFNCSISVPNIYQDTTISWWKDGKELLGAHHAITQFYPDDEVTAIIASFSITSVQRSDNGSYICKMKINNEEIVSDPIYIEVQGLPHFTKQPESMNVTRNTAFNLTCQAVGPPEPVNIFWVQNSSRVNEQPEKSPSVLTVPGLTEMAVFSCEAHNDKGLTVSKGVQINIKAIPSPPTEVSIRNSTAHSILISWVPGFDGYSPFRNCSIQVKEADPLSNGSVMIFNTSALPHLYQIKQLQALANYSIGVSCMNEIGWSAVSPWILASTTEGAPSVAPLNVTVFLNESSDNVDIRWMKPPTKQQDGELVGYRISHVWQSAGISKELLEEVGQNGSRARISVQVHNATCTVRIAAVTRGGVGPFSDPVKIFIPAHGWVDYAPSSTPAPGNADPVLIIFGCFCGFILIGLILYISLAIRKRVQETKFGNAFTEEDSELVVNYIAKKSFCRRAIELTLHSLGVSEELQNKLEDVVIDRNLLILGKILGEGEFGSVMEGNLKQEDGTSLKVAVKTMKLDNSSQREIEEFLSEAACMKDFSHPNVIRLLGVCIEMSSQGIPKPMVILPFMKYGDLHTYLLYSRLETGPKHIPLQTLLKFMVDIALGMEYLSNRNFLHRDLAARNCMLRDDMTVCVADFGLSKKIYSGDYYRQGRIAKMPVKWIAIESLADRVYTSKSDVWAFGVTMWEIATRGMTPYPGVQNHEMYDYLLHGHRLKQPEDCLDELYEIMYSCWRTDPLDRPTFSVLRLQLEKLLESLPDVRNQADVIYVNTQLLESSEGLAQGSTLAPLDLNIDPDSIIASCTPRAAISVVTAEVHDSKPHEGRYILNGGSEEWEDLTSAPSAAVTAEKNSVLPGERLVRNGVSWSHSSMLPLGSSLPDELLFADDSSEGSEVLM
assayProtocol: phosphorylation enrichment, bacterial display (enrichment ratio); higher = better substrate or ligand; peptides without Tyr show the background
Class label 1: phosphorylation enrichment at least 0.4. Class label 0: phosphorylation enrichment below 0.4.

1. HLVLNYGVCVC [JAK2_Y613]: label 1
2. KHTLSFVDVGT [SDHA_Y629_Y629F]: label 0
3. VEFAKYGSLQG [RET_Y809_R813Q_YF]: label 0

[ask] Has HFIKLYEEKTG [PARP1_Y618_M615I] a recorded phosphorylation enrichment greater than or equal to 0.4?
[reply] label 1

[ask] Is phosphorylation enrichment at least 0.4? Consider RFLERYIFNPE [HLA-DPB1_Y57_R61P_YF]
[reply] label 1

[ask] hey, is phosphorylation enrichment for this one >= 0.4? KLIETYFSKNF [PLP1_Y50_YF]
[reply] label 1

[ask] Record NFGTNYRVGSS [CPO_Y278_K273N_YF] ; criterion: phosphorylation enrichment no lower than 0.4. Met?
[reply] label 1

[ask] Quick check: does MKNDLYQTPLH [NFKB1_Y582_R578K] have phosphorylation enrichment greater than or equal to 0.4?
[reply] label 1

[ask] phosphorylation enrichment >= 0.4 for FSEVRYMKEPF [HIPK4_Y170_V171M_YF] ?
[reply] label 0

[ask] Hi, just wondering whether SENPKYPEVGD [TMEM43_Y233] shows phosphorylation enrichment of 0.4 or higher.
[reply] label 1

[ask] Item FIIFIYAMKKK [SLCO1B1_Y645_L643F_YF] with phosphorylation enrichment of 0.4 or above?
[reply] label 1

[ask] Does phosphorylation enrichment meet or surpass 0.4 for FSKQIYKGMVA [PCDH15_Y931_R929Q] ?
[reply] label 0

* * *

experimentalSystem: SHP2-C SH2
assayProtocol: SH2 binding enrichment of the phosphorylated peptide, bacterial display (enrichment ratio); higher = better substrate or ligand; peptides without Tyr show the background
Hi there, I'd appreciate the recorded SH2 binding enrichment for every entry that follows.
One number for each entry.

1. KINKMYSDRAM: 0.639
2. EKKKYYDTKIE [CASP5_Y104]: 0.505
3. WASGIYFVPKG [APBB1IP_Y340_R335W_YF]: 1.17
4. NKYTTYLPRLP [C9orf24_Y126]: 0.776
5. HNMPIYEGYAL [ACTA1_Y168_V165M]: 0.893
6. GYRVCYTPDSR [PTPRF_Y451_Y450C]: 0.717
7. TVSRPYSFIEF [SEC22B_Y110]: 26.3
8. VYYYSYLLKNH [PTEN_Y180]: 0.941
9. FQLENYCNGGG [INS_Y108_YF]: 0.674
10. SGIFQYIIAKF [FOXL2_Y83_YF]: 1.27

Provide SH2 binding enrichment values for the following items, in order.
1. VGTKRYMAPEV [ACVRL1_Y375]
2. CPTIHYNYMCN [TP53_Y234_T230P]
3. DFFDLYGGEKF [PTPN11_Y66_YF]
4. KFDLMYAKCAF [TUBA1A_Y399_R402C]
5. KDHRDYKYQPR [SOX9_Y172_P170R]
6. RTLIRYANLGN [BEST1_Y131]
7. LHRAHYDLHHT [AHSG_Y314_R317H]

[reply]
0.616
4.49
0.639
0.473
1.08
1.12
1.92

* * *

Test system: Fer (mouse)
assayProtocol: phosphorylation enrichment, bacterial display (enrichment ratio); higher = better substrate or ligand; peptides without Tyr show the background
Everything with phosphorylation enrichment lower than 0.5 is criterion not met; everything else, including exactly 0.5, is criterion met.

Sample answers from the record:
1) LNCAGYCDALE [MTUS1_Y151]: criterion met
2) GACGGYCSVLG [RAB18_Y202]: criterion not met
3) YIIFIYAMKKK [SLCO1B1_Y645_L643F]: criterion not met
4) LESETYRRLLD [KRT12_Y429_I426S]: criterion met
5) TLGPFYPSRLF [CRYAA_Y18]: criterion not met
6) ARKRKYFKKHE [NFIX_Y40]: criterion not met
7) KYVVVYFRETD [IL17RB_Y447_I451T]: criterion met
8) RQNNSYTCYTA [SLC20A2_Y386_R382Q]: criterion met
9) RRIFSYRGHLW [VHL_Y112_H110Y_YF]: criterion met
10) TQFWRYFAGNL [SLC25A5_Y112_L111R]: criterion not met

[ask] Exam item: decide whether the reported phosphorylation enrichment for VLRRVYVDFEG [KMT2B_Y1707] is at least 0.5.
[reply] criterion not met

[ask] In plain terms: is recorded phosphorylation enrichment at least 0.5 for ANNEYYFRVCA ?
[reply] criterion not met

* * *

experimentalSystem: FGFR3 (UniProt P22607)
Sequence (P22607 whole entry, looked up): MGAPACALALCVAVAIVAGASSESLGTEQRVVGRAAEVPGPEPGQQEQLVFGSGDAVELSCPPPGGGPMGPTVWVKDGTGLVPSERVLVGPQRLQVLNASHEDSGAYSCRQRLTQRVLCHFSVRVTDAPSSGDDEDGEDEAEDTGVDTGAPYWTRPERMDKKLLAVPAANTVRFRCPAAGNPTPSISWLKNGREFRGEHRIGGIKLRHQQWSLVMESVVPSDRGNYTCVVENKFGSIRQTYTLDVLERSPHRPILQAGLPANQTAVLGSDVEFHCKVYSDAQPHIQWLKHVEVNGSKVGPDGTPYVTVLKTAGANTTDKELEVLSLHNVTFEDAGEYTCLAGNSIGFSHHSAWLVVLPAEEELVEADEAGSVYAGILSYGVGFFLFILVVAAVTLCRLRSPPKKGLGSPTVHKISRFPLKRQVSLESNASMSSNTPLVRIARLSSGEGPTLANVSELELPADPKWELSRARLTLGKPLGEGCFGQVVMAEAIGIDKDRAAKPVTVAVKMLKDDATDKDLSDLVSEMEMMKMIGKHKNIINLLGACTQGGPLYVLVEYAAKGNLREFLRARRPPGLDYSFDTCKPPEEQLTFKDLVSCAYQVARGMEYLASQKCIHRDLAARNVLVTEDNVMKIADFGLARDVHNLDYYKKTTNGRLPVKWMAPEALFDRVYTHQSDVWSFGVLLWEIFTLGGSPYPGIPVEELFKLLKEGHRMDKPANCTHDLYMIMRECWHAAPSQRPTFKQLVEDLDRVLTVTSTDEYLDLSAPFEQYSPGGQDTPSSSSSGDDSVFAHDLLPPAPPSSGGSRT
assayProtocol: phosphorylation enrichment, bacterial display (enrichment ratio); higher = better substrate or ligand; peptides without Tyr show the background
metricName: phosphorylation enrichment
Answers are plain numbers.

Give phosphorylation enrichment for all sequences that follow.
1. CEAVEYLESKQ [BTK_Y511_M509V]
2. GSESDYIIMPN [SCARB1_Y133_V135I]
3. LGKLIYPVGFW [NTHL1_Y177]
4. KNDSKYVVKGN [KIT_Y823_N822K]
5. EQKKYYNAVKK [SCN5A_Y1495_M1498V]

[reply]
1: 0.875; 2: 3.91; 3: 1.13; 4: 0.444; 5: 0.466

Report phosphorylation enrichment for each item below.
1. MDNQEYKDAYK [BRDT_Y331]
2. DFFDLYGGEKF [PTPN11_Y66_YF]

[reply]
1. 0.652
2. 0.629

* * *

experimentalSystem: c-Src SH2
assayProtocol: SH2 binding enrichment of the phosphorylated peptide, bacterial display (enrichment ratio); higher = better substrate or ligand; peptides without Tyr show the background
Classify as follows. Reported SH2 binding enrichment greater than or equal to 0.7: 1. Reported SH2 binding enrichment below: 0.

See these solved cases before continuing.
1) PGIRMYQVQYN [LRFN1_Y454]: 1
2) TTPAVYARVAK [CTRB2_Y246]: 1
3) HITQVYGFYDE [PPP2CA_Y127_Q122H]: 1
4) VGTKRYMALEV [ACVRL1_Y375_P378L]: 1
5) TQFWRYFAGNL [SLC25A5_Y112_L111R]: 0

[ask] Could you please find out whether VGTKRYMAPDV [ACVRL1_Y375_E379D] has SH2 binding enrichment that meets 0.7 or exceeds it?
[reply] 0

[ask] Is SH2 binding enrichment at least 0.7? Consider PDGHEYIFVDP [PDGFRA_Y572_YF]
[reply] 1

[ask] Reported SH2 binding enrichment reaches at least 0.7 for EEQKKYFNATK [SCN5A_Y1494_M1498T_YF] ?
[reply] 0

[ask] Confirm if SH2 binding enrichment reported for the sequence VIESSYTSADG [DHCR7_Y382_C380S] is 0.7 or above.
[reply] 1

[ask] Hi team, for KEAVLYPHLPP [SQSTM1_Y383_A381V] , is the recorded SH2 binding enrichment at or above 0.7?
[reply] 0

* * *

experimentalSystem: Hck (UniProt P08631)
Sequence (P08631 whole entry, looked up): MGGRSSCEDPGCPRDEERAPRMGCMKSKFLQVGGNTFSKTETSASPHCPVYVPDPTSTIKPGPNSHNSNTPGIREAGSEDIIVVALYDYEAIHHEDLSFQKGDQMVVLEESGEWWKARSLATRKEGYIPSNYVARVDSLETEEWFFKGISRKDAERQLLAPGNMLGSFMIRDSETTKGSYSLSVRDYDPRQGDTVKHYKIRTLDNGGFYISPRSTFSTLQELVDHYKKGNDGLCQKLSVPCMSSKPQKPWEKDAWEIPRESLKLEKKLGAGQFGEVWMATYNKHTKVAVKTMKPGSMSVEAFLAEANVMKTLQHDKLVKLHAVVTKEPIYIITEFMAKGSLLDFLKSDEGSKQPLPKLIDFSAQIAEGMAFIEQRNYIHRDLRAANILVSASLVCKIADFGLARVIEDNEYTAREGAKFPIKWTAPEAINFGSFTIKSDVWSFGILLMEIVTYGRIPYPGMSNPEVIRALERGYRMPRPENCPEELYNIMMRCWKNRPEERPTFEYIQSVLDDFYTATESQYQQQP
assayProtocol: phosphorylation enrichment, bacterial display (enrichment ratio); higher = better substrate or ligand; peptides without Tyr show the background
Label Y when phosphorylation enrichment is at or above 0.7; anything below gets N.

// below: answered sequences
1) VNFGAYINFFK [GLB1_Y488_D491Y_YF]: N
2) RAILLYEFVGK [NATD1_Y45_V42I_YF]: Y
3) GISDEYHVIQH [GCDH_Y398_R402Q]: Y

[ask] Does AGLVQYYMEHH [PTPN11_Y80_E76G] have a reported phosphorylation enrichment of at least 0.7?
[reply] Y

[ask] Please check the record GIVEDYRPPFC [ACVRL1_Y421_Y426C] and state if its phosphorylation enrichment is at or above 0.7.
[reply] N

[ask] Decide: is the reported value of phosphorylation enrichment for INSLKYAFNVS [EIF2B5_Y583_I587V_YF] equal to or greater than 0.7?
[reply] N

[ask] Decide: phosphorylation enrichment of EAVSIYQFYGQ [CBLC_Y402_H405Y] >= 0.7?
[reply] Y

[ask] Could you verify whether the entry PMFTKYGNGLL [RPGRIP1L_Y196_S199G] shows phosphorylation enrichment of no less than 0.7?
[reply] N

[ask] Given the entry QRRNVYFFSFL [PTEN_Y176_Y174N_YF] , answer whether its phosphorylation enrichment meets or surpasses 0.7.
[reply] N

[ask] Given GIKAAYEAELG [LMNA_Y81] , state whether its phosphorylation enrichment is at least 0.7.
[reply] N

[ask] Hello, I need to know if RHPEVYHHLGI [NVL_Y290_V295I] has measured phosphorylation enrichment not below 0.7. Thanks!
[reply] Y

* * *

Test system: AncSZ
assayProtocol: phosphorylation enrichment, bacterial display (enrichment ratio); higher = better substrate or ligand; peptides without Tyr show the background
metricName: phosphorylation enrichment
Give bare numbers.

1. PTATSYNPNLA [GABRA1_Y375_T376N]: 1.39
2. TSNQEYLDVSM [FGFR1_Y766_L769V]: 1.15
3. LGRGKSSEVFE [CSNK2A1_Y50_Y50S]: 0.923
4. VDLIVYLRTNP [TK2_Y181]: 1.12
5. IKAGAYDFPSP [CAMK2A_Y230]: 0.811
6. AELVQYFMEHH [PTPN11_Y80_YF]: 1.02
7. EQKKFYNAMKN [SCN5A_Y1495_K1500N_YF]: 0.458
8. SSSGGYGGGFG [KRT19_Y61_A60G_YF]: 0.48

Count: 4. Required value per item: phosphorylation enrichment.
1. LSNFNYEQRGA [API5_Y497_G493S]
2. TLQVMYGCDVG [HLA-B_Y123_S121V]
3. FYRNVYHLASV [RBL1_Y796_K794N]
4. ESMLRYDVYGG [STOX1_Y607_E608D]

[reply]
1.21
1.1
0.728
0.96

# batch: return phosphorylation enrichment for each of the 5 sequences below
1. CSRRFYQLTKL [AR_Y858]
2. NTILLYHIMAW [GPR143_Y157_S152N]
3. SISLKYEGRVF [ABL1_Y167_R166K_YF]
4. DWRQEYVLNEP [TGM1_Y267_S272P]
5. QKKPCYEIRWK [PDGFRB_Y562_R561C]

[reply]
[0.79, 1.52, 1.05, 1.24, 1.43]
